- Tested on: MADTP-314res CHIKV 899 variant
- assay_text: microbe, parasite or virus in culture
- Format: cell-based, Chikungunya virus
- measurement_conditions: Chikungunya virus, read-out: EC50 MADTP-314res variant 3 (resistance selection)
readout_label: EC50 (µM)
Provide only the numeric value, understood in µM.

Ask: Give the reported value of EC50 for this record: CCc1nc2c(nnn2-c2cccc(OC(C)C)c2)c(=O)[nH]1 [MADTP-372]
Result: 255

Ask: Give the reported value of EC50 for this record: NC(=O)c1nc(F)c[nH]c1=O [T-705, reference compound]
Result: 34

Ask: Give the reported value of EC50 for this record: CC(=O)c1cccc(-n2nnc3c(=O)[nH]c(C)nc32)c1 [MADTP-314]
Result: 283

Ask: Give the reported value of EC50 for this record: CCN(CC)CCCC(C)Nc1ccnc2cc(Cl)ccc12 (centres unmarked) [Chloroquine]
Result: 20

Ask: Give the reported value of EC50 for this record: CCc1nc2c(nnn2-c2cccc(C(C)=O)c2)c(=O)[nH]1 [MADTP-393]
Result: 193

* * *

What IC50 was measured for each of the following?
- test_target: VEEV nsP1 (Venezuelan equine encephalitis virus, UniProt P36328)
- Sequence (P36328 1-535 limits assumed): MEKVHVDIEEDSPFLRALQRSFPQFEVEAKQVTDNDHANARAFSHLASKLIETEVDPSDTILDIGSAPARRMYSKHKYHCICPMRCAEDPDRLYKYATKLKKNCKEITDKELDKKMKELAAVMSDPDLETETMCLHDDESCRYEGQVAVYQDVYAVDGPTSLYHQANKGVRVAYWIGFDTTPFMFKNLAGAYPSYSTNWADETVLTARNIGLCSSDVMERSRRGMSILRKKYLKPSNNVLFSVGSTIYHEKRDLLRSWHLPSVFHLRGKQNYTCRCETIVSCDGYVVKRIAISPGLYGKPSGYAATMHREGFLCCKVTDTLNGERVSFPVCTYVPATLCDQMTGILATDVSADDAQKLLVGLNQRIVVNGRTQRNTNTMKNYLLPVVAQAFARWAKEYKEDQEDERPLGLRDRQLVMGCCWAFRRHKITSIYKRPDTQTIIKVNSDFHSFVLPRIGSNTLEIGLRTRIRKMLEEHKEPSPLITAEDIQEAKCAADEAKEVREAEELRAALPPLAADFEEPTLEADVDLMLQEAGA
- assay_text: biochemical

Ask: Give the reported value of IC50 for this record: `CCc1nc2c(nnn2-c2cccc(OC(C)C)c2)c(=O)[nH]1`
Result: > 1000 µM

Ask: Give the reported value of IC50 for this record: `CC(=O)c1cccc(-n2nnc3c(=O)[nH]c(C)nc32)c1`
Result: > 1000 µM

Ask: Give the reported value of IC50 for this record: `CCCOc1ccc(-n2nnc3c(=O)[nH]c(C)nc32)cc1`
Result: > 1000 µM

* * *

- test_target: VEEV nsP1 (Venezuelan equine encephalitis virus)
- assay_text: biochemical
- Assay type: biochemical
readout_label: pIC50
The read-out pIC50 is expressed as -log10 of concentration in moles per litre.

Ask: Give the reported value of pIC50 for this record: `CCc1nc2c(nnn2-c2cccc(OC(C)C)c2)c(=O)[nH]1`
Result: 5.00

* * *

- Tested on: CHIKV Venturini (Italy 2008)
- assay_text: Viral RNA reduction (qRT-PCR) antiviral assay in Vero E6 cells
- Format: cell-based
- measurement_conditions: Chikungunya virus, Vero C1008, read-out: EC50, in vitro antiviral activity against CHIKV Venturini (Italy 2008)
What EC50 was measured for each of the following?
Provide only the numeric value, understood in µM.

Ask: Please indicate recorded EC50 of `CCc1nc2c(nnn2-c2cccc(C(C)=O)c2)c(=O)[nH]1` measured with CHIKV Venturini (Italy 2008).
Result: 8.2

Ask: Please indicate recorded EC50 of `CC(=O)c1cccc(-n2nnc3c(=O)[nH]c(C)nc32)c1` measured with CHIKV Venturini (Italy 2008).
Result: 26

Ask: Please indicate recorded EC50 of `CCc1nc2c(nnn2-c2cccc(OC(C)C)c2)c(=O)[nH]1` measured with CHIKV Venturini (Italy 2008).
Result: 1.4

* * *

- assay_text: in vitro
- measurement_conditions: African green monkey
readout_label: CC50

Ask: Give the reported value of CC50 for this record: `CC(=O)c1cccc(-n2nnc3c(=O)[nH]c(C)nc32)c1`
Result: > 743 µM

Ask: Give the reported value of CC50 for this record: `CCc1nc2c(nnn2-c2cccc(OC(C)C)c2)c(=O)[nH]1`
Result: > 668 µM

Ask: Give the reported value of CC50 for this record: `CCc1nc2c(nnn2-c2cccc(C(C)=O)c2)c(=O)[nH]1`
Result: 57 µM
